- Test system: U251 CNS
- method.summary: NCI tumour cell line growth inhibition, 48 h
recorded.metric: TGI

Quick one: TGI for "N=C(N)CCCCCCCCC(=N)N" ?
> 100 µM

Proceed to "Nc1nc(SCc2ccccc2)c2ncn(Cc3ccccc3)c2n1"
> 100 µM

Would you mind doing CC1N(C)C(=O)OC12CCN(CCCC(=O)c1ccc(F)cc1)CC2 (stereo not given) as well?
> 100 µM

Try this compound next: "CCC(=O)COc1ccc(NC(NC(=O)C(C(F)(F)F)C(F)(F)F)(C(F)(F)F)C(F)(F)F)cc1"
> 100 µM

Another compound to check: "COc1cccc(-c2cc(=O)c3cc(N)ccc3[nH]2)c1"
> 100 µM

Now consider "O=c1cc2ccccc2nn1-c1ccccc1Cl" .
> 100 µM

Would you kindly repeat that for "C=C[C@H]1CN2CCc3c([nH]c4c([C@H]5CCCN5C)c(O)ccc34)[C@@H]2C[C@@H]1C[C@H]1c2[nH]c3ccccc3c2CCN1C" ?
2.92 µM

Next entry: "CCSc1nc(N=Cc2cccs2)c2cn[nH]c2n1"
> 100 µM

Another compound: "O=[N+]([O-])C(=C(N1CCOCC1)N1CCOCC1)/C(Cl)=C(\Cl)[N+](=O)[O-]"
37.8 µM

Also, CCOC(=O)C(C)c1cc(C2(C)OCCO2)c(C)o1 (stereo not given) please.
> 100 µM

"CNC(=O)c1n[nH][nH]c1=O" ?
> 100 µM

Continue with "Cn1c(=O)c2[nH]c(CS(=O)(=O)Cc3nc4c([nH]3)c(=O)n(C)c(=O)n4C)nc2n(C)c1=O"
> 100 µM

Now the compound "CC1(C)OCC(CO)(Nc2nc(N3CC3)nc(N3CC3)n2)CO1"
31.7 µM

Same for "CCOC(=O)c1ccc(N2C(=O)/C(=C\OC)c3ccccc3C2=O)cc1"
> 100 µM

Follow-up entry: "C[N+](C)(CCCCCC[N+](C)(C)CCCN1C(=O)c2cc3ccccc3cc2C1=O)CCCN1C(=O)c2ccccc2C1=O"
> 37.5 µM

Similarly, "COC(=O)c1nc(NC#N)[nH]c(=O)c1C" ?
> 100 µM

One more compound: "O=C([CH-]C(=O)c1ccccc1)c1ccccc1.O=C([CH-]C(=O)c1ccccc1)c1ccccc1.[Nd+3].[OH-].[OH3+]"
40.3 µM

And then OC1CC(O)c2c(Cl)sc(Cl)c21 (stereo not given) , what is it?
> 100 µM

Can you check "CNC(=O)c1cccc(-c2ccc3c(N4CCOC[C@@H]4C)nc(N4CCOC[C@@H]4C)nc3n2)c1" next?
> 100 µM

And the next one, "O=C(NOCC1CC1)c1ccc(F)c(F)c1Nc1ccc(I)cc1Cl" ?
12.2 µM

And for "COc1nc(C)cc2c(=O)n(-c3ccccc3)n(CCCN3CCN(c4ccc(Cl)cc4)CC3)c(=O)c12" ?
> 50 µM

Now give it for "O=C1CCCC2=C1CC1=C(CCCC1=O)N2c1cccc2ccccc12" too.
> 100 µM

Please answer likewise for "CC1(C)C(=O)N=C(N)N1C(=O)OCc1ccccc1"
> 100 µM

For "CCN(CC)Cc1cc(Nc2c3ccccc3nc3c2[nH]c2ccccc23)ccc1O" then?
2.79 µM

Queued: "Cc1sc2nc3n(c(=O)c2c1C)N=C(c1ccc(Cl)cc1)CS3"
> 100 µM

* * *

- Tested on: MALME-3M melanoma
- method.summary: NCI tumour cell line growth inhibition, 48 h
recorded.metric: GI50

What is its GI50 for MALME-3M melanoma? Entry: "C=C(CN1CCc2ccccc2C1)c1ccc(C(=O)Nc2ccc(N)cc2)cc1"
18.3 µM

Now this one: "N=C(N)CCCCCCCCC(=N)N"
39.9 µM

Field entry: "Nc1ccccc1C#C/C=C\C#Cc1ccc(Cl)cc1Cl"
1.87 µM

Then this compound: "CCOC(=O)Oc1c(OC)cc(C(=O)O[C@@H]2C[C@@H]3CN4CCc5c([nH]c6cc(OC)ccc56)[C@H]4C[C@@H]3[C@H](C(=O)OC)[C@H]2OC)cc1OC"
6.74 µM

* * *

Please go through the items and note down their TGI.
- Test system: U251 CNS
- method.summary: NCI tumour cell line growth inhibition, 48 h

May I ask what TGI has been recorded for COC(=O)C1(O)c2ccccc2N=C2C(=O)c3ccccc3N21 (stereo not given) ?
> 100 µM

Also, CC(C(=O)Oc1ccc2ccccc2c1-c1c(O)ccc2ccccc12)c1ccccc1 (stereo not given) please.
28.7 µM

Entry "N#CS/C(Cl)=C(/C(Cl)=C(Cl)Cl)[N+](=O)[O-]" please
> 100 µM

Similarly, "O=C(Nc1ccc(Cl)cc1)c1cc2ccccc2cc1O" ?
29.5 µM

Let us now turn to "COc1ccc(-c2nc(-c3cn(C)c4ncccc34)cs2)cc1"
> 100 µM

What do we get for COC(=O)CC1C(=O)OCc2c1cc1n(c2=O)Cc2c-1nc1ccccc1c2OC (stereo not given) ?
> 100 µM

Proceed to CCN(CC)CCOc1ccc(/C=C2\CC3C4CC=C5C[C@@H](N6CCCC6)CC[C@]5(C)C4CC[C@]3(C)[C@H]2O)cc1OC (stereo not given in full)
20.5 µM

Try N#C/C=C1\C=CC(O)C(O)C1OC1OC(CO)C(O)C(O)C1O (stereo not given) next.
> 100 µM

Field entry: C=C1C(=O)OC2CC3(CO3)C3C(O)C(O)CC3(C)CC12 (stereo not given)
> 100 µM

Also CCOC(=O)C1C(=O)c2ccccc2CN1Cc1ccccc1 (stereo not given) , if possible.
> 100 µM

Now the compound CC1(C)OCC(C2OC(N3O[C@H](CI)C[C@@H]3c3ccccc3)C3OC(C)(C)OC23)O1 (stereo not given in full)
> 100 µM

Now the compound "O=C1c2ccccc2-c2c1c1ccccc1c(=O)n2CCNCCNCCn1c2c(c3ccccc3c1=O)C(=O)c1ccccc1-2"
1.59 µM

Item: CC(C)(C)N1NC1C1NN1C(C)(C)C (stereo not given)
> 100 µM

Now give it for CC(C)CCC[C@@H](C)C1CCC2[C@@H]3CCC4CC(CCC=C(c5cc(Cl)c(OC(=O)c6ccccc6)c(C(=O)O)c5)c5cc(Cl)c(OC(=O)c6ccccc6)c(C(=O)O)c5)CC[C@]4(C)C3CC[C@@]21C (stereo not given in full) too.
> 100 µM

Thanks! And CC1=C(OC2OC(CO)C(O)C(O)C2O)C(=O)C[C@H]2C1=CC[C@@H]1[C@@]2(C)C(=O)C[C@]2(C)[C@@H]([C@@](C)(O)C(=O)CCC(C)(C)O)[C@H](O)C[C@@]12C (stereo not given in full) ?
> 100 µM

# repeat for "Cc1cc2oc(=O)[nH]c(=S)c2c(C)c1C"
> 100 µM

Please do the same for "Cc1ccc2c(N)c(C(=O)N[C@H]3CCc4cc(N5CC6CCC(C5)N6)ccc4C3)sc2n1" as well.
2.15 µM

# repeat for "O=c1c2cccnc2nc2ccc3c[nH][nH]c3c12"
> 10 µM

Next compound: "O=C(Cc1ccccc1)c1ccc2[nH]c(=O)oc2c1"
62.3 µM

Field entry: CC(O)C(O)C(N)CC=O (stereo not given)
> 500 µM

Also, "O=C(O)c1cc2c(cn1)[nH]c1ccccc12" please.
> 100 µM

Follow-up entry: "[N-]=[N+]=Nc1ccc2c(c1)Sc1ccccc1N2CCCCCl"
> 100 µM

Also need "C[C@]12CCC(=O)C(O)=C1CC[C@@H]1[C@@H]2CC[C@]2(C)C(=O)CC[C@@H]12" , thanks.
> 100 µM

What do you get for CCOC(=O)CC[C@@H](NC(=O)c1ccc(N[C@@H]2c3cc4c(cc3C(c3cc(OC)c(O)c(OC)c3)C3C(=O)OC[C@@H]32)OCO4)cc1)C(=O)OCC (stereo not given in full) ?
0.123 µM

Then "O=C1C(=O)c2ccccc2C(O)=C1C(CCc1ccccc1)C1=C(O)c2ccccc2C(=O)C1=O" ?
> 100 µM

Please answer likewise for "COc1ccc(-c2nc(-c3ccccc3)c(-c3ccccc3)n2C2CC2)cc1OC1CCCC1"
> 165 µM

Also check "CSc1cc(Cl)c(C)cc1S(=O)(=O)NC(=O)NNc1ccc(F)c(Cl)c1"
> 100 µM

Lookup CCOC(=O)CCC(NC(=O)c1ccc(Nc2nc3cc(C(F)(F)F)ccc3nc2-c2ccccc2)cc1)C(=O)OCC (stereo not given)
> 100 µM

Same question for "C/C=C(/C)C(=O)O[C@H]1C(C)=C[C@]23C(=O)[C@@H](C=C(COC(C)=O)[C@@H](O)[C@]12O)[C@H]1[C@@H](C[C@H]3C)[C@@]1(C)OC(=O)/C(C)=C\C" please.
7.55 µM

Ok, now "CCN(CC)CCCCCCCNc1c2ccc(Cl)cc2nc2ccc(OC)cc12"
1.93 µM
